assay: T. cruzi intracellular proliferation inhibitors, primary screen, cell-based, beta-gal Tulahuen parasites, NIH3T3 host, luminescence (AID 624255); settings: T. cruzi beta-gal in NIH3T3, GalScreen luminescence, 90 h; at 8.34 µM
Out of some 77,000 compounds screened, about 4,600 (6%) were called active. Roughly 1% stayed inconclusive and do not appear here.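 How the source made its calls: active means mean inhibition above about 93%, with at least 55% of replicates each passing it (limit read from the data, passing the limit was not always enough); inconclusive means only one of those two conditions holds; inactive means neither condition holds.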 The sample holds actives, similar compounds and a random draw of the others, so the mix is not that of the screen.
Labels: yes (1) (active), no (0) (inactive)

{"query smiles": "C[C@@H]1CN([C@@H](C)CO)S(=O)(=O)c2ccc(C#Cc3ccc(F)cc3)cc2O[C@H]1CN(C)C(=O)NC1CCCC1", "group": "yes (1)"}
{"query smiles": "O=C(C[C@@H]1CC[C@H](NC(=O)Cc2ccccn2)[C@H](CO)O1)NCCc1ccncc1", "group": "no (0)"}
{"query smiles": "O=C(C[C@H]1CC[C@@H]2[C@H](COC[C@H](O)CN2S(=O)(=O)c2ccc(F)cc2)O1)NCCN1CCCCC1", "group": "no (0)"}
{"query smiles": "O=C(C[C@H]1CC[C@@H]2[C@H](COC[C@@H](O)CN2C(=O)Nc2ccc(C(F)(F)F)cc2)O1)NCCc1ccncc1", "group": "no (0)"}
{"query smiles": "COc1cccc(S(=O)(=O)N[C@H]2CC[C@@H](CC(=O)NCc3ccc(F)cc3)O[C@@H]2CO)c1", "group": "no (0)"}
{"query smiles": "C[C@@H]1CN([C@@H](C)CO)S(=O)(=O)c2ccc(C#Cc3ccc(F)cc3)cc2O[C@@H]1CN(C)CC1CC1", "group": "no (0)"}
{"query smiles": "C[C@@H]1CN([C@H](C)CO)C(=O)c2cc(NC(=O)c3ccccc3)ccc2O[C@@H](C)CCCCO[C@H]1CN(C)S(=O)(=O)c1ccccc1", "group": "no (0)"}
{"query smiles": "O=C(Nc1cccc(Cl)c1)N1C[C@@H]2[C@H](c3ccccc31)[C@H](CO)N2C(=O)C1CC1", "group": "no (0)"}
{"query smiles": "COc1ccc(-c2cn(CC[C@@H]3CC[C@@H](NS(=O)(=O)c4ccccc4C)[C@H](CO)O3)nn2)cc1", "group": "no (0)"}
{"query smiles": "C/C=C/c1ccc2c(c1)O[C@H](CN(C)C(=O)Nc1ccccc1)[C@H](C)CN([C@@H](C)CO)S2(=O)=O", "group": "no (0)"}
{"query smiles": "COc1ccc(C#Cc2ccc3c(c2)O[C@@H](CN(C)C(=O)Nc2cccc(OC)c2)[C@H](C)CN([C@H](C)CO)S3(=O)=O)cc1", "group": "no (0)"}
{"query smiles": "O=C(C1CCC1)N1C[C@H]2[C@@H](c3ccccc31)[C@@H](CO)N2C(=O)c1ccccc1F", "group": "no (0)"}
{"query smiles": "COc1ccc(NC(=O)N(C)C[C@@H]2OCCCC[C@@H](C)Oc3ccc(NS(=O)(=O)c4cn(C)cn4)cc3C(=O)N([C@@H](C)CO)C[C@H]2C)cc1", "group": "no (0)"}
{"query smiles": "CO[C@@H]1CC[C@@H]2CCOc3c(C#N)cccc3C(=O)N(C)C[C@@H](OC)[C@@H](C)C(=O)N(C)C[C@H]1O2", "group": "no (0)"}
{"query smiles": "O=C(NCC[C@@H]1CC[C@@H](NC(=O)c2ccccc2F)[C@H](CO)O1)c1ccc2c(c1)OCO2", "group": "no (0)"}
